Test system: T-47D breast
experiment.description: NCI-60 one-dose screen, 48 h
condition.set: 10 µM unless noted
About 83,000 compounds went through this panel and 20% of them were active in at least one assay; those are over-represented in the sample as a whole. Activity calls are given as the source filed them. Rule for the calls: active = growth percent below 10; inactive = the rest.
# output must be one of class 1 for active, class 0 for inactive

Ask | Could you check what this test reported for `O=C(CCN1CCCC1)Nc1ccc2c(Nc3ccc(F)cc3)c3ccccc3nc2c1` ?
Reply | class 1

Ask | Could you check what this test reported for `Oc1cccc(CCc2ccc(Oc3cc(CCc4cccc(O)c4)cc(O)c3O)cc2)c1` ?
Reply | class 0

Ask | Could you check what this test reported for `Cc1ccccc1NS(=O)(=O)c1cccc(C(=O)Nc2ccc(Br)cc2)c1` ?
Reply | class 0

Ask | Could you check what this test reported for `CCN(Cc1ccccc1)c1ccc(C=O)cc1` ?
Reply | class 0

Ask | Could you check what this test reported for `CCCOC(=O)N[C@H]1CCc2c(Cl)c(OC)c(OC)c(OC)c2-c2ccc(SC)c(=O)cc21` ?
Reply | class 0

Ask | Could you check what this test reported for CN(C)CC(O)c1ccc(/C=C/c2ccc(Cl)cc2)cc1 (stereo not given) ?
Reply | class 0

Ask | Could you check what this test reported for `CCNC(=O)Oc1ccc(/C(=C(\C)c2ccccc2)c2ccc(OCCN3CCCCC3)cc2)cc1` ?
Reply | class 0

Ask | Could you check what this test reported for `O=C1CC(=O)OC(c2ccc([N+](=O)[O-])cc2)O1` ?
Reply | class 0

Ask | Could you check what this test reported for `Nc1ccccc1NC(=O)c1ccc(-n2nc(-c3ccccc3)c3ccccc32)cc1` ?
Reply | class 0

Ask | Could you check what this test reported for `COc1cc(/C=C2\COc3ccc(-c4ccccc4)cc3C2=O)cc(OC)c1` ?
Reply | class 0

Ask | Could you check what this test reported for `COc1cccc(-c2cc(C(=O)Nc3ccc(/C=C/c4ccc(OC5CCN(C)CC5)cc4)cc3)ccc2OC)c1` ?
Reply | class 0

Ask | Could you check what this test reported for `CC(=O)[C@@H]1CC[C@]2(CO)CC[C@]3(C)[C@H](CC[C@@H]4[C@@]5(C)CCCNC(C)(C)[C@@H]5CC[C@]43C)[C@@H]12` ?
Reply | class 0

Ask | Could you check what this test reported for `COc1cc2nc(-c3ccc(Cl)cc3)cc(OCCCN3CCCCC3)c2cc1OC` ?
Reply | class 0

Ask | Could you check what this test reported for `CCN1CCN(CCNc2nccc(-c3c(-c4cccc(OC)c4)nc4occn34)n2)S1(=O)=O` ?
Reply | class 0

Ask | Could you check what this test reported for `N#Cc1cc(-c2nc3ccccc3s2)c(=O)n(NS(=O)(=O)c2ccccc2)c1N` ?
Reply | class 0

Ask | Could you check what this test reported for `Nc1c(C(=O)Nc2cccc3cnccc23)sc2nc3c(cc12)C(=O)CCC3` ?
Reply | class 0

Ask | Could you check what this test reported for C/C=C(\C)C(=O)NC1=CC[C@@]2(C)C(=CCC3C2CC[C@@]2(C)C3CC[C@@H]2C(C)N(C)C)C1=O (stereo not given in full) ?
Reply | class 0

Ask | Could you check what this test reported for CCN1C(=O)N(CC)C2Nn3c(s/c(=C\c4ccc(OC)cc4)c3=O)=NC21 (stereo not given) ?
Reply | class 0

Ask | Could you check what this test reported for `O=[N+]([O-])c1ccc(NC(=S)N/N=C/c2cc3ccccc3n3nnnc23)cc1` ?
Reply | class 0

Ask | Could you check what this test reported for `CCCOc1ccc(/C=N/Nc2cc(C)nc3ccc(Cl)cc23)cc1` ?
Reply | class 0
